Target: RSV (Long strain) F protein on infectious virus (respiratory syncytial virus (Long strain)) (UniProt P12568)
Sequence (P12568 26-574): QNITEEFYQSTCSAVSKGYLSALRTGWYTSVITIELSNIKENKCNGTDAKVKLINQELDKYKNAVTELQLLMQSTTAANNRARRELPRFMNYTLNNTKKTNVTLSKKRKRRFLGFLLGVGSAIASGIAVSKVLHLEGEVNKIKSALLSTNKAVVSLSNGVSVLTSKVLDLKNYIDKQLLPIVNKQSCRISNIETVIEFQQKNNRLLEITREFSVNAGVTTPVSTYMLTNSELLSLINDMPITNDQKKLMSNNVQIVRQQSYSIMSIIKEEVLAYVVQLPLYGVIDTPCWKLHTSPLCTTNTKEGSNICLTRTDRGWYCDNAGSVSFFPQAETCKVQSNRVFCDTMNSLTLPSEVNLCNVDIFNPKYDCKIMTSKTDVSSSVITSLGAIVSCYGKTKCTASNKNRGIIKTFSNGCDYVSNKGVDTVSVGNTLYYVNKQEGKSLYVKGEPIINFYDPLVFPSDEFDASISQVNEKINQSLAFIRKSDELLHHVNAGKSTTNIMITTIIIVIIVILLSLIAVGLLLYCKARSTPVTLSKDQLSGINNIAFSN
Assay: cell-based or functional assay
OBSERVATION_TYPE: Fold Difference (Control IC50), against palivizumab (fold)
A number alone suffices; assume fold.

The examples below pair each entry with its known result.
BINDER	RECORDED_RESULT
A17d4(1) monoclonal antibody (antibody, V domains shown) VH: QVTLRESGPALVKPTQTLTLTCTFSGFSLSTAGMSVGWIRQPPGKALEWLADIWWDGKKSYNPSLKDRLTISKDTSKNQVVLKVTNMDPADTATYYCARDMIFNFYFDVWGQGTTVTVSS VL: DIQMTQSPSTLSASVGDRVTITCLPSSRVGYMHWYQQKPGKAPKLLIYDTMYQSSGVPSRFSGSGSGTEFTLTISSLQPDDFATYYCFQGSGYPFTFGGGTKVEIK	15
A12a6 monoclonal antibody (antibody, V domains shown) VH: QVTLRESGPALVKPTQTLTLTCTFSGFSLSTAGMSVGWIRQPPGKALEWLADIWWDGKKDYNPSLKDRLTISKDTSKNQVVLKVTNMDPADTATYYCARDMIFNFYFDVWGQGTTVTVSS VL: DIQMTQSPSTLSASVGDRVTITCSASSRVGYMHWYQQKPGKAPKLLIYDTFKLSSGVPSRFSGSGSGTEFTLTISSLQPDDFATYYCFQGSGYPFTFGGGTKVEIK	15
A1e9 monoclonal antibody (antibody, V domains shown) VH: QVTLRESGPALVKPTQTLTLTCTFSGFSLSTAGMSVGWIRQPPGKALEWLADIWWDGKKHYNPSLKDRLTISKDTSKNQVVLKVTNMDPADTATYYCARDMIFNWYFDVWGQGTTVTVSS VL: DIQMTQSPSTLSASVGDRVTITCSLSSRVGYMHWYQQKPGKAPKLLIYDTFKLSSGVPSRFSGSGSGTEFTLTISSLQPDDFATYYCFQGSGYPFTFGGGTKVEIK	8

Moving on to another binder below.
[Q] What does the record list as Fold Difference (Control IC50), against palivizumab for A8c7 Fab fragment (Fab, V domains shown) VH: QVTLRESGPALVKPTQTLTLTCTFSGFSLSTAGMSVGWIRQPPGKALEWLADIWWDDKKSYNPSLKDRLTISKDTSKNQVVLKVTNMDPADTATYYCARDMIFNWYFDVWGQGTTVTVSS VL: DIQMTQSPSTLSASVGDRVTITCSPSSRVGYMHWYQQKPGKAPKLLIYDTRYQSSGVPSRFSGSGSGTEFTLTISSLQPDDFATYYCFQGSGYPFTFGGGTKVEIK ?
[A] 34
